Cited source for all entries: PubChem BioAssay (NCI)

System: HS 578T breast
Assay: NCI tumour cell line growth inhibition, 48 h
Quantity Kind: log10 TGI (log10 of the value in µM)
Form field - Quantity: TGI; Unit: µM; Scale: log10

INSERT INTO measurements (molecule, quantity_kind, observed) VALUES
  ('C[C@H]1C(=O)C2=C[C@H]1CCC(=O)[C@]1(C)CCCC(C)(C)[C@H]1C[C@H]2O', 'log10 TGI', 1.80),
  ('COc1ccc(/C=C2\CN(Cc3cn(CCCNc4ccnc5cc(Cl)ccc45)nn3)C/C(=C\c3ccc(OC)cc3)C2=O)cc1', 'log10 TGI', 1.47),
  ('CCCCCCCCCCCCCCCCCc1nc(C#N)c(N)o1', 'log10 TGI', 1.93),
  ('C=C1C(=O)O[C@H]2[C@H]1CC/C(Cn1cc(CNC(=O)c3cc4ccccc4[nH]3)nn1)=C\CC[C@@]1(C)O[C@@H]21', 'log10 TGI', 1.74);

# batch size: 5; output log10 TGI per entry
1. CCCCCCc1cc2cc(C(=O)Nc3cccc(C(F)(F)F)c3)c(=N)oc2cc1O
2. CCOC(=O)C(Cc1ccc(N(CCCl)CCCl)cc1)NC(=O)C(CC(C)C)NC(C)=O (stereo not drawn)
3. Cc1cc(N2CCOCC2)nc(N(CCNc2ccnc3cc(Cl)ccc23)Cc2cccs2)n1
4. CN(C)/C=C/c1ccnc2c1C(=O)c1ccccc1C2=O
5. COc1ccc(/C(C)=C(\c2ccc(Cl)cc2)c2ccc(OCCN3CCCCC3)cc2)cc1F

a:
[1.00, 0.90, 0.74, 0.85, 0.83]

# batch size: 6; output log10 TGI per entry
1. Cn1cc(C2=C(c3cn(CCCSC(=N)N)c4ccccc34)C(=O)NC2=O)c2ccccc21
2. Oc1ccc(-c2nc(-c3ccc4oc5ccc(-c6[nH]c(-c7ccc(O)cc7)nc6-c6ccccc6)cc5c4c3)c(-c3ccccc3)[nH]2)cc1
3. CCN(CC)CCC(CNc1c2ccc(Cl)cc2nc2ccc(OC)cc12)c1ccccc1 (stereo not drawn)
4. COc1cc2c(cc1Nc1nc(Nc3ccsc3C(N)=O)c3cc[nH]c3n1)N(C(=O)CN(C)C)CCC2
5. COc1c(-c2ccc3c(c2)OCO3)oc2cc3c(c(OC)c2c1=O)OCO3
6. C/C=C\C(C)=C/C(C)C(=O)CC(O)CC1CC(=O)NC(=O)C1 (stereo not drawn)

a:
1: 1.00; 2: 1.84; 3: 0.74; 4: 0.73; 5: 1.97; 6: 1.80

q: Provide the documented log10 TGI with HS 578T breast as the system for `Cn1c(N)c(N=Nc2ccc(S(N)(=O)=O)cc2)c(=O)n(C)c1=O`
a: 2.00
